# METHOD SUMMARY: Apparent permeability of the compound at 50 uM after 5 hrs by PAMPA
# Assay type: ADME
Square brackets hold non-standard residues; d marks the D form. Peptide text beside a SMILES is read from it. NMeF = CN[C@@H](Cc1ccccc1)C(=O)O; NMeS = CN[C@@H](CO)C(=O)O; Sar = CNCC(=O)O
MEASURED ENDPOINT: Papp

CC[C@H](C)[C@@H]1NC(=O)[C@H]([C@@H](C)O)NC(=O)CNC(=O)CNC(=O)[C@H](Cc2ccccc2)NC(=O)CNC(=O)[C@H](Cc2ccccc2)NC(=O)[C@H]([C@@H](C)CC)NC1=O (cyclo(FGFGGTII)): Impermeable
CC[C@H](C)[C@@H]1NC(=O)[C@H]([C@@H](C)O)NC(=O)CN(C)C(=O)CN(C)C(=O)[C@H](Cc2ccccc2)NC(=O)CN(C)C(=O)[C@H](Cc2ccccc2)N(C)C(=O)[C@H]([C@@H](C)CC)NC1=O (cyclo(F[Sar][Sar]TII[NMeF][Sar])): Impermeable
CC[C@H](C)[C@@H]1NC(=O)CNC(=O)[C@H](CC(C)C)NC(=O)[C@H]([C@@H](C)CC)NC(=O)[C@H]([C@@H](C)CC)NC(=O)[C@H](CO)N(C)C(=O)CN(C)C(=O)[C@H](CC(C)C)NC1=O (cyclo(GIL[Sar][NMeS]IIL)): Impermeable
